Collected solubility at 24 h values appear next to each entry.
Experiment: Thermodynamic Solubility (Ts) Assay in Fasted State Simulated Intestinal Fluid (FaSSIF)
Format: physicochemical
Conditions: thermodynamic from solid, FaSSIF pH 6.5, shake flask, 25° C., HPLC-UV
MEASURE NAME: solubility at 24 h

* CC(C)c1c(Nc2ccc([C@H](N(C)C(=O)C3CCS(=O)(=O)CC3)C(F)(F)F)cc2)cnc2nc(Cl)nn12 | < 250 µg/mL
* CO[C@@H](C)c1c(Nc2ccc([C@H](N(C)C(=O)C3CCN(C(C)=O)CC3)C(F)(F)F)cc2)cnc2nc(Cl)nn12 | 250 to 1750 µg/mL
* CO[C@@H](C)c1c(Nc2ccc([C@H](N(C)C(=O)C3CN(C(C)=O)C3)C(F)(F)F)cc2)cnc2nc(Cl)nn12 | > 1750 µg/mL
* CO[C@@H](C)c1c(Nc2ccc([C@H](N(C)C(=O)C3CCN(C)CC3)C(F)(F)F)cc2)cnc2nc(Cl)nn12 | > 1750 µg/mL
* CO[C@@H](C)c1c(Nc2ccc([C@H](N(C)C(=O)[C@H]3C[C@H](c4nnn[nH]4)C3)C(F)(F)F)cc2)cnc2nc(Cl)nn12 | > 1750 µg/mL
* CNC(=O)[C@H]1CC[C@H](C(=O)N(C)[C@@H](c2ccc(Nc3cnc4nc(Cl)nn4c3[C@H](C)OC)cc2)C(F)(F)F)CC1 | 250 to 1750 µg/mL
* CO[C@@H](C)c1c(Nc2ccc([C@H](N(C)C(=O)C3CCN(C(=O)C4CC4)CC3)C(F)(F)F)cc2)cnc2nc(Cl)nn12 | < 250 µg/mL
* CO[C@@H](C)c1c(Nc2ccc([C@H](N(C)C(=O)C3CCN(S(C)(=O)=O)CC3)C(F)(F)F)cc2)cnc2nc(Cl)nn12 | < 250 µg/mL
